Assay: BET inhibitor-based combinations targeting novel dependencies in MECOM-rearranged (r) AML: SET-2 cell line (AID 2202231);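 further: plate controls were DMSO treated cells for no effect and wells without cells for full effect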
Details: SET-2 AML cells viability, CellTiter-Glo luminescence, 48 h; stronger effect = lower value, series mostly up to about 46 µM
Protocol: Ecotropic viral insertion site 1 (EVI1) is located on chromosome 3q26.2 as part of the MECOM (MDS and EVI1 complex) locus. […] A collection of 2480 mechanistically annotated dugs (MIPE v5.0) was used to screen four 3q26.2 rearranged AML cell lines and three non-3q26.2 rearranged AML cell lines. […] Cell viability was determined by luminescence based, Cell Titer Glo assay (Promega). […] Luminescence readings were taken using a Viewlux (PerkinElmer) with a 2 s exposure time per plate. […]
Results filed as inconclusive are left out.
For each entry below, report its viability value.
Numbers only, in %.

Answered cases to consult:
Reported viability for "CNC(=O)CN1CCC(Oc2cc3c(Nc4cccc(Cl)c4F)ncnc3cc2OC)CC1" was 107

Reported viability for CCOC(=O)C(C)Oc1cccc2c(=O)n(CC(=O)Nc3ccc4c(c3)OCCO4)ccc12 (stereo not given) was 114

Please look at the items below and tell me viability for each one, in order.
1. CCOc1ccn(-c2ccc(F)cc2)c(=O)c1C(=O)Nc1ccc(Oc2ccnc(N)c2Cl)c(F)c1
2. CCC(c1ccc(O)cc1)C(CC)c1ccc(O)cc1 (stereo not given)
3. Cn1cnc2c1c(=O)[nH]c(=O)n2C
4. O=NN(CCCl)C(=O)NCCCl

1: 104; 2: 99.8; 3: 114; 4: 104

Please look at the items below and tell me viability for each one, in order.
1. COc1ccc(C2CC(c3ccccc3)=NN2c2ccc(S(N)(=O)=O)cc2)cc1 (stereo not given)
2. Cc1ccc(O)c(C(CCN(C(C)C)C(C)C)c2ccccc2)c1 (stereo not given)
3. CC(C)N(C[C@H]1O[C@@H](n2cnc3c(N)ncnc32)[C@H](O)[C@@H]1O)C1CC(CCc2nc3ccc(C(C)(C)C)cc3[nH]2)C1 (stereo not given in full)
4. Fc1ccc(Cl)cc1-c1nc(Nc2ccncc2)c2nccnc2n1

112
117
125
110
